System: Plasmodium falciparum
Run Description: Antiplasmodial activity against chloroquine-resistant Plasmodium falciparum
Assay type: functional, organism-based
Experimental Readout: IC50

Inquiry: What IC50 appears in the records for this molecule with Plasmodium falciparum? `CC(C)c1c(O)ccc2c1CC[C@H]1C(C)(C)CCC[C@]21C`
Reply text: 4.29 µM
